# PROCEDURE_TEXT: Mouse PK studies of 11 (plasma)
# Format: in vivo, Female C57B16/N mice
# CONDITION_NOTES: female, C57B16/N, mouse, plasma; 50 mg/kg PO, formulation b (0.2% Tween 80, 20% PEG300)
# Description: Doses were freshly prepared on the day of dosing. Vehicle compositions of each dose are listed below. […] Adjust pH with 1 N hydrochloric acid to obtain a clear solution or (b) 0.2% Tween 80/20% PEG-300 in water. Adjust pH with 1 N hydrochloric acid to obtain a clear solution Then the samples were vortexed for 30 s.
QUANTITY_MEASURED: half-life (h)
Give just the number in h; leave the unit off.

Request: // half-life lookup, key: C[C@@H]1Cc2cc(C(N)=O)cnc2N1 [Compound 11]
Response: 4.1

----------
# PROCEDURE_TEXT: Mouse PK studies of 11 (plasma)
# Type: in vivo, Female C57B16/N mice
# CONDITION_NOTES: female, C57B16/N, mouse, plasma, iv, 1 mg/kg, 1 mg/kg IV
QUANTITY_MEASURED: AUC(0-t)

Request: Requested read-out: AUC(0-t). Entry: "C[C@@H]1Cc2cc(C(N)=O)cnc2N1"
Response: 464 ng·h/mL

----------
# PROCEDURE_TEXT: Permeability assay in Caco-2 cells
# CONDITION_NOTES: human, Caco-2, pH 7.4
QUANTITY_MEASURED: Papp B→A at 2 h, 5 μM (×10⁻⁶ cm/s)
Just the number in ×10⁻⁶ cm/s, nothing appended.

Request: State the recorded Papp B→A at 2 h, 5 μM for this entry: "COc1cc2nc(N3CCN(C(=O)c4ccco4)CC3)nc(N)c2cc1OC"
Response: 28.9

Request: Given CC(C)NCC(O)COc1cccc2ccccc12 (stereo not shown) , state its recorded Papp B→A at 2 h, 5 μM.
Response: 16.6

Request: Dear colleague, I am looking for the recorded Papp B→A at 2 h, 5 μM of the following molecule: "C[C@@H]1Cc2cc(C(N)=O)cnc2N1"
Response: 21.8

Request: Item under review: "C[C@H]1O[C@@H](O[C@H]2[C@@H](O)C[C@H](O[C@H]3[C@@H](O)C[C@H](O[C@H]4CC[C@@]5(C)[C@H](CC[C@@H]6[C@@H]5C[C@@H](O)[C@]5(C)[C@@H](C7=CC(=O)OC7)CC[C@]65O)C4)O[C@@H]3C)O[C@@H]2C)C[C@H](O)[C@@H]1O" . Reported Papp B→A at 2 h, 5 μM?
Response: 19

----------
# PROCEDURE_TEXT: Mouse PK studies of 11 (plasma)
# Assay type: in vivo, Female C57B16/N mice
# CONDITION_NOTES: female, C57B16/N, mouse, plasma, po, 50 mg/kg, 50 mg/kg PO, formulation b; read-out: MRTInf—obs
QUANTITY_MEASURED: MRT inf (h)
Give the quantity in h, number only.

Request: Would you mind telling me what MRT inf value was observed for "C[C@@H]1Cc2cc(C(N)=O)cnc2N1" ?
Response: 3.97

----------
# PROCEDURE_TEXT: Metabolic stability in pooled male mouse liver microsomes
# CONDITION_NOTES: male, mouse, pooled liver microsomes
# Procedure: A master solution was prepared according to the following table. 40 μL of 10 mM NADPH solution was added to each well. The final concentrations of NADPH was 1 mM. The mixture was pre-warmed at 37° C. for 5 minutes. The negative control samples were prepared by replacing NADPH solutions with 40 μL of ultra-pure H2O. The negative control was used to exclude the misleading factor that resulted from instability of chemical itself. Samples with NADPH were prepared in duplicate. […]
QUANTITY_MEASURED: microsomal CLint at 2 μM

Request: Need microsomal CLint at 2 μM of "C[C@@H]1Cc2cc(C(N)=O)cnc2N1" , thanks.
Response: < 5.42 µL/min/mg

----------
# PROCEDURE_TEXT: Mouse PK studies of 11 (plasma)
# Type: in vivo, Female C57B16/N mice
# CONDITION_NOTES: female, C57B16/N, mouse, plasma, po, 50 mg/kg, 50 mg/kg PO, formulation a
QUANTITY_MEASURED: AUC(0-inf)
Remember to put the unit after the number in your answer.

Request: Which AUC(0-inf) value belongs to "C[C@@H]1Cc2cc(C(N)=O)cnc2N1" ?
Response: 51300 ng·h/mL

----------
# System: K562 (ATCC) cells
# PROCEDURE_TEXT: Cellular potency: 1-MNA levels in K562 cells after compound incubation
# Assay type: cell-based
# CONDITION_NOTES: Homo sapiens, 24 h incubation
Please respond with reported IC50 for every item in the list.

Request: Entry C[C@H]1Nc2ncc(C(N)=O)cc2[C@@H]1C [Compound 26A] has what IC50?
Response: 0.114 µM

Request: # lookup: IC50 of C[C@@H]1Cc2cc(C(N)=O)cnc2N1 [Compound 11]
Response: 0.038 µM

Request: Given the molecule Cc1c(C(N)=O)cnc2c1C[C@@H](C)N2 [Compound 19A] , what is its reported IC50?
Response: 0.012 µM

----------
# PROCEDURE_TEXT: Permeability assay in Caco-2 cells
# CONDITION_NOTES: human, Caco-2, pH 7.4, Recovery (%) AP-BL, Caco-2
# Procedure: Preparation of Caco-2 Cells: 50 μL and 25 mL of cell culture medium were added to each well of the Transwell insert and reservoir, respectively. And then the HTS transwell plates were incubated at 37° C., 5% CO2 for 1 hour before cell seeding. […] Cell culture medium was replaced every other day, beginning no later than 24 hours after initial plating. Preparation of Stock Solutions: The stock solutions of control and test compounds were prepared in DMSO at the concentration of 10 mM. […]
QUANTITY_MEASURED: recovery at 2 h, 5 µM

Request: Bench note: what recovery at 2 h, 5 µM did CC(C)NCC(O)COc1cccc2ccccc12 (stereo not drawn) show?
Response: 80%

Request: What value of measured recovery at 2 h, 5 µM is listed for "COc1cc2nc(N3CCN(C(=O)c4ccco4)CC3)nc(N)c2cc1OC" ?
Response: 77%

Request: What recovery at 2 h, 5 µM value was documented for this compound, "C[C@H]1O[C@@H](O[C@H]2[C@@H](O)C[C@H](O[C@H]3[C@@H](O)C[C@H](O[C@H]4CC[C@@]5(C)[C@H](CC[C@@H]6[C@@H]5C[C@@H](O)[C@]5(C)[C@@H](C7=CC(=O)OC7)CC[C@]65O)C4)O[C@@H]3C)O[C@@H]2C)C[C@H](O)[C@@H]1O" ?
Response: 79.1%

----------
# MEASURED_TARGET: recombinant human NNMT (Homo sapiens)
# Sequence (P40261 whole entry): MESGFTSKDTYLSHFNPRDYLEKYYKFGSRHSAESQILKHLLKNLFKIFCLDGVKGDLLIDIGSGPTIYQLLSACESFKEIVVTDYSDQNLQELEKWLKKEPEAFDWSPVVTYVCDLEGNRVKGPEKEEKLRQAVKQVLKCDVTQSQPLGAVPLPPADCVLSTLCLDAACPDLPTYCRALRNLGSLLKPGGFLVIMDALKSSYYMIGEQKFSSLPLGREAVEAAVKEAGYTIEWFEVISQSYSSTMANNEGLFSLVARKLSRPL
# PROCEDURE_TEXT: in vitro NNMT enzyme inhibition assay (Promega MTase-Glo Methyltransferase Assay)
# CONDITION_NOTES: 40 nM recombinant human NNMT, 8 μM nicotinamide, 6.7 μM SAM, 20 minutes
# Experimental: NNMT biochemical activity for was evaluated using the Promega Mtase-Glo Methyltransferase Assay kit. Assays were performed in a white, flat-bottomed 96 well plate. […] Reactions were performed for 20 minutes at room temperature. MTase-Glo reagent and MTase-Glo detection solution were added according to manufacturer's instructions and luminescence signal measured with a SpectraMax i3 plate reader and data analyzed with GraphPad Prism version 9. […]
QUANTITY_MEASURED: pIC50
Reminder that pIC50 is minus the log10 of a molar concentration.

Request: Query (molecule): "NC(=O)c1cnc2c(c1)CCN2" ; field requested: pIC50
Response: 6.98

Request: May I ask what pIC50 has been recorded for C[C@H]1Nc2ncc(C(N)=O)cc2[C@@H]1C [Compound 26A] ?
Response: 7.70

Request: Returns the measured pIC50 for the input molecule. Input: Cc1c(C(N)=O)cnc2c1CC(C)N2 (stereo not drawn)
Response: 6.07

----------
# PROCEDURE_TEXT: Mouse PK studies of 11 (plasma)
# Type: in vivo, Female C57B16/N mice
# CONDITION_NOTES: female, C57B16/N, mouse, plasma, po, 10 mg/kg, 10 mg/kg PO, formulation a
# Source text: Doses were freshly prepared on the day of dosing. Vehicle compositions of each dose are listed below. […] Adjust pH with 1 N hydrochloric acid to obtain a clear solution or (b) 0.2% Tween 80/20% PEG-300 in water. Adjust pH with 1 N hydrochloric acid to obtain a clear solution Then the samples were vortexed for 30 s.
QUANTITY_MEASURED: AUC(0-t) (ng·h/mL)
Only the number, expressed in ng·h/mL, is required.

Request: # input molecule: "C[C@@H]1Cc2cc(C(N)=O)cnc2N1" ; wanted: its AUC(0-t)
Response: 582

----------
# PROCEDURE_TEXT: Permeability assay in Caco-2 cells
# CONDITION_NOTES: human, Caco-2, pH 7.4, Recovery (%) BL-AP, Caco-2
QUANTITY_MEASURED: recovery at 2 h, 5 µM
Just so you know, I need the unit written after the number.

Request: Using the record for CC(C)NCC(O)COc1cccc2ccccc12 (stereo not drawn) , report its recovery at 2 h, 5 µM.
Response: 88.5%

Request: Give its recovery at 2 h, 5 µM value. Item: "C[C@H]1O[C@@H](O[C@H]2[C@@H](O)C[C@H](O[C@H]3[C@@H](O)C[C@H](O[C@H]4CC[C@@]5(C)[C@H](CC[C@@H]6[C@@H]5C[C@@H](O)[C@]5(C)[C@@H](C7=CC(=O)OC7)CC[C@]65O)C4)O[C@@H]3C)O[C@@H]2C)C[C@H](O)[C@@H]1O"
Response: 94.5%

Request: What value of measured recovery at 2 h, 5 µM is listed for "COc1cc2nc(N3CCN(C(=O)c4ccco4)CC3)nc(N)c2cc1OC" ?
Response: 90.4%
